The reported measurements were obtained from the supplement of paper PMC11061612.

tested on: JIMT-1 (Breast Carcinoma); assay: combination Emax (second highest fraction inhibited in the dose matrix, 72 h); higher = more inhibition; extreme values may be limits of the assay

compound: CN(CCO)CC[C@H](CSc1ccccc1)Nc1ccc(S(=O)(=O)NC(=O)c2ccc(N3CCC([C@@H](O)c4ccccc4-c4ccc(Cl)cc4)CC3)cc2)cc1S(=O)(=O)C(F)(F)F [AZD4320] + C1CN(CCC1(C(=O)N[C@@H](CCO)C2=CC=C(C=C2)Cl)N)C3=NC=NC4=C3C=CN4 [Capivasertib] (first compound max 1 µM, 7x7, partner max 3 µM)
combination Emax: 0.2
--
compound: CN(CCO)CC[C@H](CSc1ccccc1)Nc1ccc(S(=O)(=O)NC(=O)c2ccc(N3CCC([C@@H](O)c4ccccc4-c4ccc(Cl)cc4)CC3)cc2)cc1S(=O)(=O)C(F)(F)F [AZD4320] + C=CCn1c(=O)c2cnc(Nc3ccc(N4CCN(C)CC4)cc3)nc2n1-c1cccc(C(C)(C)O)n1 [AZD1775] (first compound max 1 µM, partner max 1 µM)
combination Emax: 0.842
--
compound: CC(=O)Nc1cccc(-n2c(=O)n(C3CC3)c(=O)c3c(Nc4ccc(I)cc4F)n(C)c(=O)c(C)c32)c1 [Trametinib] + Cc1nc(-c2cn3c(n2)-c2ccc(-c4cnn(C(C)(C)C(N)=O)c4)cc2OCC3)n(C(C)C)n1 [Taselisib] (first compound max 1 µM, 7x7, partner max 10 µM)
combination Emax: 0.631
--
compound: COc1cccc(OCCCN)c1-c1cc(Nc2cnc(C#N)cn2)n[nH]1 [Prexasertib] + O=C(c1cc(Cc2n[nH]c(=O)c3ccccc23)ccc1F)N1CCN(C(=O)C2CC2)CC1 [Olaparib] (first compound max 1 µM, 7x7, partner max 10 µM)
combination Emax: 0.788
--
compound: Cc1c2c(nn1C)CSCc1cc(n(C)n1)CSc1cc(c3ccccc3c1)OCCCc1c(C(=O)O)n(C)c3c-2c(Cl)ccc13 [AZD5991] + CC1(C)CCC(CN2CCN(c3ccc(C(=O)NS(=O)(=O)c4ccc(NCC5CCOCC5)c([N+](=O)[O-])c4)c(Oc4cnc5[nH]ccc5c4)c3)CC2)=C(c2ccc(Cl)cc2)C1 [Venetoclax] (first compound max 1 µM, 7x7, partner max 1 µM)
combination Emax: 0.215
--
compound: COc1nnc2ccc(N3CCC(c4ccc(OCCN5CCN(C)C(=O)[C@H]5C)cc4)CC3)nn12 [AZD5153] + C[C@@H]1COCCN1C2=NC(=NC(=C2)C3(CC3)[S@](=N)(=O)C)C4=C5C=CNC5=NC=C4 [AZD6738] (first compound max 1 µM, 7x7, partner max 10 µM)
combination Emax: 0.77
